# procedure-details: NCI Yeast Anticancer Drug Screen. Data for the mec2-1 strain (AID 157)
# test-context: S. cerevisiae mec2-1 strain, at 11.0 µM, stronger effect = higher value
# Description: Growth inhibition of yeast strains with defined genetic alterations is measured as a screen for potential anti-cancer activity. Selected strains with alterations in DNA damage repair or cell cycle control were exposed to compounds and growth inhibition was measured relative to vehicle treated controls. The strain used in this assay is mec2-1
The panel holds about 79,000 compounds, 15% with a hit somewhere; the sample as a whole holds those more often.

[
  {
    "compound": "CCC(=O)N(c1ccccc1)C(C)CN1CCC(O)(c2cccc(C(F)(F)F)c2)CC1 (stereo unspecified)",
    "growth inhibition, %": 17
  },
  {
    "compound": "O=[N+]([O-])c1cc(S(=O)(=O)Nc2ccccc2)ccc1Cl",
    "growth inhibition, %": 21
  },
  {
    "compound": "COc1ccc(N2CN(C)CSC2=S)cc1",
    "growth inhibition, %": -22
  },
  {
    "compound": "S=c1cn[nH]c2ccc(Br)cc12",
    "growth inhibition, %": -6
  },
  {
    "compound": "CC(=O)Oc1ccc(N2C(=O)C3c4[nH]c5ccccc5c4C4CCC(C(C)(C)C)CC4C3C2=O)cc1 (stereo unspecified)",
    "growth inhibition, %": 98
  },
  {
    "compound": "Cc1c(-c2ccccc2)[nH]c2ccccc12",
    "growth inhibition, %": -2
  },
  {
    "compound": "CCN(CC)CCNC(=O)c1nn(-c2ccc(Cl)cc2)c2c1CCc1cc(OC)ccc1-2",
    "growth inhibition, %": 4
  },
  {
    "compound": "COc1ccc(N)c2c1C(=O)c1ccccc1C2=O",
    "growth inhibition, %": 12
  },
  {
    "compound": "CC(=O)C1=C(C)O/C(=C/c2cccc(Cl)c2)C1=O",
    "growth inhibition, %": 0
  },
  {
    "compound": "N#C/C(=C/N1C(=O)/C(=C/c2ccc([N+](=O)[O-])cc2)SC1=S)c1nc2ccccc2s1",
    "growth inhibition, %": 18
  },
  {
    "compound": "CC1C(C#N)(C#N)C(C#N)=C(N)C1(Cl)[N+](=O)[O-] (stereo unspecified)",
    "growth inhibition, %": 32
  }
]

###

# procedure-details: NCI Yeast Anticancer Drug Screen. Data for the mec2-1 strain (AID 157)
# test-context: S. cerevisiae mec2-1 strain, at 11.0 µM, stronger effect = higher value
This is part of a sample that, as a whole, favours compounds with a hit. Of some 79,000 tested, about 15% had one in any assay.

[
  {
    "molecule": "C=C(C)[C@@H]1CCc2c(O)c(O)c(=O)cc(C)c2C1",
    "growth inhibition (%)": 32
  },
  {
    "molecule": "Cc1cc(C)c(N2C(=O)CC(Sc3ccccc3N)C2=O)c(C)c1 (configuration not stated)",
    "growth inhibition (%)": -45
  },
  {
    "molecule": "Nc1nc(N)c2c(n1)CCC(S(=O)(=O)c1ccc3ccccc3c1)C2 (configuration not stated)",
    "growth inhibition (%)": 65
  },
  {
    "molecule": "Clc1nc(C(Cl)Cl)nc2sc3c(c12)CCCC3",
    "growth inhibition (%)": 15
  },
  {
    "molecule": "COc1cccc(C(c2cc3c(cc2O)OCO3)N2CCOCC2)c1OC (configuration not stated)",
    "growth inhibition (%)": -2
  },
  {
    "molecule": "Cc1ccc(S(=O)(=O)Nc2ccc3c(c2)C(O)c2ccccc2-3)cc1 (configuration not stated)",
    "growth inhibition (%)": -5
  },
  {
    "molecule": "CN(N=O)C(=O)N[C@@H](C=O)[C@@H](O)[C@H](O)[C@H](O)CO",
    "growth inhibition (%)": -6
  },
  {
    "molecule": "O=C1NC(c2c(Cl)cccc2Cl)Nc2ccccc21 (configuration not stated)",
    "growth inhibition (%)": -9
  },
  {
    "molecule": "O=C1c2ccccc2CCC1(Br)Br",
    "growth inhibition (%)": 76
  },
  {
    "molecule": "CCCCCCCCN1C(=O)c2ccccc2C1=O",
    "growth inhibition (%)": -5
  },
  {
    "molecule": "CCCc1[nH]nc(C(N)=O)c1N=NN(C)C",
    "growth inhibition (%)": -14
  },
  {
    "molecule": "CCCCOC(=O)CSSCC(=O)OCCCC",
    "growth inhibition (%)": 7
  }
]
